Assay: Heat stability (no precipitation after heat treatment)
Conditions: 10 min at 100° C. or 30 min at 85° C.
measured.endpoint: Heat stability

molecule="D38A: SP1 mutant D38A, SEQ ID NO:17 (protein, Sp1 mutant variant D38A mutated) MATRTPKLVKHTLLTRFKDEITREQIDNYINDYTNLLALIPSMKSFNWGTDLGMESAELNRGYTHAFESTFESKSGLQEYLDSAALAAFAEGFLPTLSQRLVIDYFLY" measured_endpoint="Heat stability" endpoint_result=+
